assay-protocol: Oral bioavailability in rat at 2 mg/kg by LC-MS/MS analysis
Assay type: ADME, organism-based
measurement-parameters: in vivo
reported-endpoint: bioavailability (%)
Numeric answer only, unit % assumed.

Asked: Fill blank: measured bioavailability of the compound "Cc1ccc(CCOc2ccc(-c3c(C)nc(C)c([C@H](OC(C)(C)C)C(=O)O)c3N3CCC(C)(C)CC3)cc2)cc1" is ____.
Given back: 52
